This document collects IC50 values reported for PIK3CD (Human).

molecule: CCC(Nc1nc(N)ncc1-c1cncc(S(=O)(=O)NC(C)(C)C)c1)c1nc2cccc(C)c2c(=O)n1-c1ccccc1 (centres undefined)
IC50: < 20 nM
--
molecule: CCC(Nc1nc(N)nc(C)c1/C=C/C(N)=O)c1nc2cccc(C)c2c(=O)n1-c1ccccc1 (centres undefined)
IC50: < 10 nM

Prompt line: What does the record list as IC50 for CCC(Nc1nc(N)nc(C)c1/C=C/C(=O)Nc1ccccn1)c1nc2cccc(C)c2c(=O)n1-c1ccccc1 (centres undefined) ?
Response line: < 10 nM

Prompt line: Give the measured IC50 of CCC(Nc1nc(N)ncc1-c1cncc(S(=O)(=O)C(C)C)c1)c1nc2cccc(F)c2c(=O)n1-c1ccccc1 (centres undefined) .
Response line: 20 to 100 nM

Prompt line: Value lookup for IC50; key = CCC(Nc1nc(N)nc(C)c1/C=C/C(=O)N1CCOCC1)c1nc2cccc(C)c2c(=O)n1-c1ccccc1 (centres undefined)
Response line: < 10 nM

Prompt line: Look up IC50: CCC(Nc1nc(N)ncc1-c1cncc(S(=O)(=O)N2CCCC2)c1)c1nc2cccc(F)c2c(=O)n1-c1ccccc1 (centres undefined)
Response line: < 20 nM

Prompt line: Sample CCC(Nc1nc(N)nc(C)c1/C=C/C(=O)Nc1cccc(C)n1)c1nc2cccc(C)c2c(=O)n1-c1ccccc1 (centres undefined) — what was its IC50?
Response line: < 10 nM

Prompt line: I have this molecule here, CCC(Nc1nc(N)ncc1-c1cncc(S(=O)(=O)Nc2ccccc2C)c1)c1nc2cccc(F)c2c(=O)n1-c1ccccc1 (centres undefined) , and I need its recorded IC50.
Response line: < 20 nM

Prompt line: Given CCNC(=O)/C=C/c1c(C)nc(N)nc1NC(CC)c1nc2cccc(C)c2c(=O)n1-c1ccccc1 (centres undefined) , state its recorded IC50.
Response line: 10 to 100 nM
